- Tested on: COLO 205
- protocol_details: NCI tumour cell line growth inhibition, 48 h
Calls of active or inactive are those of the source. No stated cut-off is given here; in the data, active = GI50 up to about 1.1 µM and inactive = higher.
endpoint_label: GI50

The examples below pair each entry with its known result.
C=C1C(=O)O[C@H]2[C@H]1CC(=O)/C(C)=C/CC[C@@]1(C)O[C@@H]21	0.255 µM (active)
N#Cc1c(NC(=S)NC(=O)c2ccccc2)nc2c(c1-c1ccccc1)CCCC2	> 100 µM (inactive)
N[C@H](C(=O)O)[C@@H]1CC(Br)=NO1	33.3 µM (inactive)
COc1cccc2c1C(=O)c1c(O)c3c(c(O)c1C2=O)C[C@@](O)(C(=O)CO)C[C@@H]3OC1CC2C(OCN3CN2COC2C(C)OC(O[C@H]4C[C@](O)(C(=O)CO)Cc5c(O)c6c(c(O)c54)C(=O)c4c(OC)cccc4C6=O)CC23)C(C)O1 (stereo partly drawn)	0.0614 µM (active)
CC1=NN(C(=O)c2ccccc2O)C(=O)/C1=C/c1c(O)ccc2ccccc12	2.9 µM (inactive)

Would you kindly share the measured GI50 for CN1C/C(=C\c2ccc(Cl)cc2)C(=O)/C(=C/c2ccc(Cl)cc2)C1 ? 0.979 µM (active)

Follow-up item: CC1=NOC2(C1)C(=O)Nc1ccccc12 (stereo not drawn) > 100 µM (inactive)

Please give the result for Cc1ccc(C(=O)NN=C(/N=N/c2cccc(C)c2)c2ccc(N(C)C)cc2)cc1 too. > 100 µM (inactive)

Similarly, CCOC(=O)C1(C/C=C/CBr)CCc2ccccc2C1=O (stereo not drawn) ? 17.2 µM (inactive)

Please do the same for CCOP(=O)(CN=C(c1ccccc1)c1ccccc1)OCC as well. > 100 µM (inactive)

O=C1c2cc(Cl)ccc2N=C(NCCCl)C2CSCN12 (stereo not drawn) , same question. > 100 µM (inactive)

What about this compound? COc1ccc(-c2cc(O)c3cc4c(cc3n2)OCO4)cc1OC > 100 µM (inactive)

Follow-up item: CC(=O)SCCC1c2[nH]c3ccccc3c2CCN1O (stereo not drawn) > 100 µM (inactive)

Lookup CC(=O)OC1C(COC(=O)c2ccccc2)OC(Nc2ncc(-c3ccc(Br)cc3)s2)C(OC(=O)c2ccccc2)C1OC(=O)c1ccccc1 (stereo not drawn) > 100 µM (inactive)

Proceed to CCCNC(=O)Nc1ccc2c(c1)Cc1cc(N(CCCl)CCCl)ccc1-2 8.32 µM (inactive)

# iterate: CCC1(O)CC(OC2CC(N(C)C)C(OC3CC(O)C(OC4OC(C)C(=O)C=C4N)C(C)O3)C(C)O2)c2c(O)c3c(c(O)c2C1C(=O)OC)C(=O)c1cccc(O)c1C3=O (stereo not drawn) 0.00376 µM (active)

----------
- System: HL-60
- protocol_details: NCI tumour cell line growth inhibition, 48 h
Active and inactive are the calls of the source. Rule as the data show it: active = GI50 up to about 1.1 µM and inactive = higher.
endpoint_label: GI50

Some solved cases for reference:
COc1cc(-c2cc(CCC(=O)Nc3ccccc3[N+](=O)[O-])n(-c3ccc([N+](=O)[O-])cc3[N+](=O)[O-])n2)ccc1O	> 10 µM (inactive)
CC(C)(C)/N=c1/n(C(C)(C)C)oc(=O)n1C(C)(C)C	> 100 µM (inactive)

Tell me the measured GI50 of CC(C)C1=CC23CCC4C(C)(C(=O)O)CCCC4(C)C2CC1C1C(=O)N(c2ccccc2N2C(=O)C4C5CC6C7(C)CCCC(C)(C(=O)O)C7CCC6(C=C5C(C)C)C4C2=O)C(=O)C13 (centres undefined) , please. 6.38 µM (inactive)

Please answer likewise for OCC(O)C(O)C(O)C(O)c1nc2cc(Cl)ccc2[nH]1 (centres undefined) 2.14 µM (inactive)

----------
- Tested on: MOLT-4
- protocol_details: NCI tumour cell line growth inhibition, 48 h
Calls of active or inactive are those of the source. Cut-off read from the data, not from the text of the source: active = GI50 up to about 1.1 µM and inactive = higher.
Form entry, call: pick from active, inactive

# example entries with known answers
COc1ccc2c(c1)C(=O)Cc1ccccc1CC2	inactive
O=S(=O)(Sc1ccc(Cl)cc1)c1ccc(Cl)cc1	inactive
COC(=O)c1[nH]c(=S)[nH]c(=O)c1-c1ccc(Cl)cc1	inactive
O=C1CC2C=CC1C2CO (stereo not drawn)	inactive
C/C(=N\NC(=O)CC(=O)N(C(=O)c1ccc(Cl)cc1)c1ccc(C)cc1)c1ccccc1O	inactive
OCC(O)C(O)C(O)C(O)c1nc2cc(Cl)ccc2[nH]1 (stereo not drawn)	inactive

Hey, what did the test say about O=C1CCCCC2N(C(c3ccccc3)c3ccccc3)CC[C@@]12c1ccccc1.O=C1CCCC[C@H]2N(C(c3ccccc3)c3ccccc3)CC[C@@]12c1ccccc1 (stereo partly drawn) ? inactive

Now give it for COc1ccc(N2C(=O)/C(=C\c3cccc(Oc4ccccc4)c3)SC2c2ccccc2)cc1 (stereo not drawn) too. inactive

Check O=c1c2ccccc2[nH]c2c(Cl)cc(Cl)c(N3CCCCC3)c12 too. inactive

O=C(NCCCl)NCc1ccccc1 ? inactive

What would you report for Cc1nnc2n1N=C(c1ccccc1)C(c1ccccc1)S2 (stereo not drawn) ? inactive

How about CC(=O)OCCOCNC(=S)N/N=C(\C)c1cccs1 ? inactive

Now the compound COC1C(O)C(n2ncc3c(SC)nc(SC)nc32)OC1C(O)CO (stereo not drawn) inactive

----------
- System: HOP-62
- protocol_details: NCI tumour cell line growth inhibition, 48 h
Calls of active or inactive are those of the source. No stated cut-off is given here; in the data, active = GI50 up to about 1.1 µM and inactive = higher.
Below, each entry is listed alongside its reported GI50.

CCOP(=O)(CN=C(c1ccccc1)c1ccccc1)OCC	> 100 µM (inactive)
OC1C2CCC1C1C3C=CC(C3)C21 (stereo not drawn)	> 100 µM (inactive)

# get_value(readout='GI50', item= O=C1CCCC[C@H]1C(O)CC1CC(=O)N(c2ccccc2)C(=O)C1 (stereo partly drawn) ) > 100 µM (inactive)

Same again, this time with COc1ccccc1CCc1cc(OC)c(OC)c(OC)c1 > 100 µM (inactive)

Also, CSc1nc(Nc2ccccc2Cl)c2c(N)nn(C)c2n1 please. 27 µM (inactive)

Let us now turn to Clc1ccc(SC(/C=C/NNC2=NN=C(c3ccccc3)C(c3ccccc3)N2)c2ccccc2)cc1 (stereo not drawn) 33 µM (inactive)

Query [N-]=[N+]=Nc1ccc(NCCCCCC(=O)ON2C(=O)CCC2=O)c([N+](=O)[O-])c1 next 72.9 µM (inactive)

Now try O=C1C=C(Nc2ccc(S(=O)(=O)Nc3nccs3)cc2)c2ccccc2C1=O . 15.4 µM (inactive)

Moving on to the next compound: CC(C)(C)OC(=O)N1C(OP(=O)(Oc2ccccc2)Oc2ccccc2)=CSc2ccccc21 47.6 µM (inactive)

Same question, COc1ccc(/C=N/n2c(-c3ccccc3)n[nH]c2=O)c(OC)c1 this time 29.8 µM (inactive)

Okay, and Cc1c(NC(=S)NC(=O)c2ccc([N+](=O)[O-])cc2)c(=O)n(-c2ccccc2)n1C ? > 100 µM (inactive)

And the next one, Cc1cc2c(cc1C)[n+]([O-])c(C(=O)/C=C/c1ccccc1[N+](=O)[O-])c(C)[n+]2[O-] ? 34 µM (inactive)

Item: O=C(O)C1CCc2nnc(-c3ccccc3)n21 (stereo not drawn) > 100 µM (inactive)

Moving on to CN(C)CCCOc1nc2c(c(=O)n(C)c(=O)n2C)n1C.SC1=NC=NC2=NC=NC12 18.5 µM (inactive)

Also CC(CNCCCNCCNCCCNCO)[N+](=O)[O-] (stereo not drawn) , if possible. > 100 µM (inactive)

// query: O=[N+]([O-])c1ccc(-c2cnc3ccccn23)cc1 > 100 µM (inactive)

Next: COC(=O)C(/C(=N/N)C(=O)Nc1cc(Cl)c(Cl)cc1Cl)c1nc2ccc(Cl)cc2nc1O (stereo not drawn) > 100 µM (inactive)

Try this compound too: Nc1nc(NNc2cccc(F)c2)cc(=O)[nH]1 25 µM (inactive)

----------
- Test system: M14
- protocol_details: NCI tumour cell line growth inhibition, 48 h
Activity calls are given as the source filed them. No stated cut-off is given here; in the data, active = GI50 up to about 1.1 µM and inactive = higher.
endpoint_label: GI50

Examples from the recorded data:
CCN(CC(COc1ccc2c(c1)[n+]([O-])nc(N)[n+]2[O-])OC(C)=O)C(C)=O (configuration not stated)	89.3 µM (inactive)
CC1=C(O)C(=O)C2C(=O)C1C(C)C2c1ccccc1 (configuration not stated)	> 100 µM (inactive)
O/N=C/C1c2ccccc2-c2ccccc21	16.9 µM (inactive)
CCCCN(C(=O)c1ccccc1)C1CCC(=O)c2[nH]c3ccccc3c21 (configuration not stated)	67.1 µM (inactive)

Endpoint output: GI50 of CC(C)(C)OC(=O)N1C(OP(=O)(Oc2ccccc2)Oc2ccccc2)=CSc2ccccc21 . Value? 25.8 µM (inactive)

Moving on to the next molecule: CN1CC[C@]2(C)c3c(O)cccc3CC3CCCC1C32C (some centres not stated) > 100 µM (inactive)

Next molecule: Cc1cccc(NC(=O)/C(=N\NC(C)(C)C)C2NC(=S)NC2=O)c1C (configuration not stated) > 100 µM (inactive)

----------
- System: HT-29
- protocol_details: NCI tumour cell line growth inhibition, 48 h
Active and inactive are the calls of the source. Rule as the data show it: active = GI50 up to about 1.1 µM and inactive = higher.
endpoint_label: GI50

Cc1c(C(=O)O)n(C)c(=O)n(C)c1=O	> 100 µM (inactive)
COc1ccccc1CCc1cc(OC)c(OC)c(OC)c1	41.5 µM (inactive)

What value of GI50 on HT-29 does O=C(c1ccco1)N1CCN(C(=O)c2ccco2)C1=S have? 8.05 µM (inactive)

And what about the compound Clc1ccc2nc3c(c(-c4ccccc4)nn3-c3ccccc3)c(-c3ccccc3)c2c1 ? > 100 µM (inactive)

Please give the result for CC1C[C@]2(C)C(=O)N(c3ccccc3)C(=N)[C@@H]2N(C)c2ccccc21 (stereo partly specified) too. > 100 µM (inactive)

Repeat for the following compound: CCOC(=O)c1c(N)sc2c1C(C(=O)OCC)CC2 (stereo unspecified) > 100 µM (inactive)

What do we get for CCOC(=O)C1Cc2c(ccc(OC)c2OC)C(=O)C1N (stereo unspecified) ? > 100 µM (inactive)
